System: MKN-1
PROTOCOL SUMMARY: Cell proliferation assay (CellTiterGlo), MKN-1
Format: cell-based
MEASUREMENT CONTEXT: Homo sapiens, MKN-1, 72 hours
pIC50: −log10 of the molar value.
PARAMETER: pIC50

Below: 2 molecules and their reported pIC50.
MOLECULE	pIC50
CCc1c(F)ccc2cc(O)cc(-c3ncc4c(N5CC[C@@H](O)C5)nc(OC[C@@]56CCCN5C[C@H](F)C6)nc4c3F)c12	5.39
CCc1c(F)ccc2cc(O)cc(-c3ncc4c(N5CCC[C@H]5CO)nc(OC[C@@]56CCCN5C[C@H](F)C6)nc4c3F)c12	5.75

P. CCc1c(F)ccc2cc(O)cc(-c3ncc4c(N5C[C@H](O)C[C@H]5C(=O)OC)nc(OC[C@@]56CCCN5C[C@H](F)C6)nc4c3F)c12
Q. CCc1c(F)ccc2cc(O)cc(-c3ncc4c(N5CCCC(C)(O)C5)nc(OC[C@@]56CCCN5C[C@H](F)C6)nc4c3F)c12 (stereo partly shown) [Compound A1, reference compound]
Query :: Lowest pIC50? choose P or Q Answer by quoting the chosen item's label.
Result :: P
